# targetUnderTest: Ubiquitin carboxyl-terminal hydrolase 17-like protein 5 (Homo sapiens)
# measurementDescription: ubiquitin-specific protease 17 DUB inhibitors, concentration-effect assay, cell-free, verification of initial screening actives (AID 1645864)
# testContext: purified USP17, ubiquitin-rhodamine cleavage fluorescence, 3 h
Activity calls are given as the source filed them.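 Rule for the calls: active = maximal inhibition of USP17 at or above 30% in the confirmation dose-response, a value not among the printed readouts; inactive = the rest.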
Answer with one of the outcomes given here: t = active, f = inactive

A selection of reference data follows.
{"columns": ["compound", "classAssignment"],
 "data": [
  ["CC(C)CCCCCCCCCCC(=O)N(C)[C@H](CO)C(=O)N[C@H](C)C(=O)NCC(=O)N(C)C1C(=O)N[C@@H](C)C(=O)NC(C(=O)O)Cc2ccc(O)c(c2)-c2cc1ccc2O (some centres undefined)", "f"],
  ["O=C(CCC1CCCCC1)Nc1ccccc1C(=O)N1CCOCC1", "f"],
  ["Cc1ccc2cc(CNc3ccccc3)c(=O)n(CC(=O)Nc3ccccc3C)c2c1", "t"],
  ["NS(=O)(=O)c1cccc(NC(=O)CN2CCCc3ccccc32)c1", "f"],
  ["Cc1cc(C(F)(F)F)n(-c2ccc(NC(=O)Nc3cccc(C(F)(F)F)c3)cc2)n1", "t"]
]}

Q: Which outcome did this test record for the compound COc1ccc(-c2cc(-c3ccc(O)cc3)nc(N)c2C#N)cc1OC ?
A: f

----------
# targetUnderTest: UniProt A8MUK1
# measurementDescription: ubiquitin-specific protease 17 DUB inhibitors, concentration-effect assay, cell-free, verification of initial screening actives (AID 1645864)
# testContext: purified USP17, ubiquitin-rhodamine cleavage fluorescence, 3 h
Activity calls are given as the source filed them.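 Rule for the calls: active = maximal inhibition of USP17 at or above 30% in the confirmation dose-response, a value not among the printed readouts; inactive = the rest.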
Your answer must be one of the following: active, inactive

Solved entries:
{"columns": ["molecule", "classAssignment"],
 "data": [
  ["CCCC(O)CCCCCCCc1cc(O)cc(O)c1C(=O)OC(CCC)CCCCCCCc1cc(O)cc(O)c1 (stereo unspecified)", "active"],
  ["Cn1c(SCc2ccccc2)nnc1-c1csc(-c2ccccc2)n1", "active"]
]}

Q: Could you check what this test reported for CCOc1ccc(NC(=O)COc2cccc3c2CCN(CC)C3=O)cc1 ?
A: inactive

Q: Outcome logged for NC(=O)c1ccc(NC(=O)Cc2cc(-c3ccc(Cl)cc3)on2)cc1 in this assay:
A: inactive

Q: Please state the recorded outcome for this molecule: CCOc1ccc(S(=O)(=O)Nc2ccc[nH]c2=O)cc1
A: inactive

Q: Identify the outcome logged in this assay for the molecule shown: COc1ccc(NC(=O)Cn2c(CSc3ccc(C)cc3)nc3ccccc32)cc1
A: active

Q: Answer briefly: the call reported for COc1cccc2cc(C(=O)Nc3ccc4c(c3)OCCO4)oc12 in this assay.
A: inactive

----------
Measurement record for Ubiquitin carboxyl-terminal hydrolase 17-like protein 5 (Homo sapiens) (UniProt A8MUK1); quantity recorded: pIC50.
One number for each entry, as −log10 of the molar value.

{"columns": ["molecule", "targetUnderTest", "reading"],
 "data": [
  ["N#Cc1ccccc1Cn1c(=O)n(CCCCC(=O)NCCc2ccccc2)c(=O)c2ccccc21", "Ubiquitin carboxyl-terminal hydrolase 17-like protein 5 (Homo sapiens) (UniProt A8MUK1)", 5.00],
  ["COc1ccc(OC)c(NC(=O)Cn2c(=O)n(CC3CCC(C(=O)NCCc4ccccc4)CC3)c(=O)c3ccccc32)c1 (centres undefined)", "Ubiquitin carboxyl-terminal hydrolase 17-like protein 5 (Homo sapiens) (UniProt A8MUK1)", 6.58],
  ["O=C1CN(C(=O)COC(=O)CCCN2C(=O)c3cccc4cccc(c34)C2=O)c2ccccc2N1", "Ubiquitin carboxyl-terminal hydrolase 17-like protein 5 (Homo sapiens) (UniProt A8MUK1)", 4.31]
]}

Next item in the queue.
Q: Sample CC1CC(=O)c2c(cc3c(-c4c(O)cc(O)c5c(O)c6c(cc45)OC(C)CC6=O)c(O)cc(O)c3c2O)O1 (centres undefined) — what was its pIC50?
A: 6.31

----------
# targetUnderTest: Ubiquitin carboxyl-terminal hydrolase 17-like protein 5 (Homo sapiens)
# measurementDescription: ubiquitin-specific protease 17 DUB inhibitors, concentration-effect assay, cell-free, verification of initial screening actives (AID 1645864)
# testContext: purified USP17, ubiquitin-rhodamine cleavage fluorescence, 3 h
The source made the active and inactive calls.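 The calls were made as follows: active = maximal inhibition of USP17 at or above 30% in the confirmation dose-response, a value not among the printed readouts; inactive = the rest.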
Outcomes you can answer with include only these: label 1 for active, label 0 for inactive

These recorded examples may help you get a feel for the data.
{"columns": ["smilesCode", "classAssignment"],
 "data": [
  ["Cc1cccc(OCCn2c(CCNC(=O)C3CCCCC3)nc3ccccc32)c1", "label 1"],
  ["Cc1nc(-c2ccccn2)sc1C(=O)Nc1ccc(C#N)cc1", "label 0"],
  ["COc1ccc(Cl)cc1N1C(=O)[C@H]2[C@@H](C1=O)[C@]1(C(=O)Nc3c(C)cc(C)cc31)N1CCC[C@@H]21", "label 0"],
  ["COc1cc(NC(=O)c2ccc3c(c2)OCO3)ccc1-c1cc2ccccc2oc1=O", "label 1"],
  ["O=C(c1cc(-c2ccncc2)n[nH]1)N1CCC(C(=O)N2CC=C(c3ccccc3)CC2)CC1", "label 1"],
  ["O=C1COc2ccccc2N1Cc1noc(-c2ccccc2)n1", "label 0"],
  ["Cc1ccc([N+](=O)[O-])cc1S(=O)(=O)Nc1cc2sc(=O)oc2c2ccccc12", "label 1"],
  ["Cn1c(=O)sc2cc(NC(=O)c3ccc(Br)cc3)ccc21", "label 1"],
  ["Cc1ccc(-n2nc(C(=O)Nc3ccc(C)cn3)c3ncn(C)c(=O)c32)cc1", "label 1"]
]}

Here is the next item to consider.
Q: Would you mind telling me which call this test gave Cc1c(-c2ccc(C#N)cc2)oc2ccc(Br)cc2c1=O ?
A: label 1

----------
# targetUnderTest: Ubiquitin carboxyl-terminal hydrolase 17-like protein 5 (Homo sapiens) (UniProt A8MUK1)
# Sequence (A8MUK1 whole entry, looked up): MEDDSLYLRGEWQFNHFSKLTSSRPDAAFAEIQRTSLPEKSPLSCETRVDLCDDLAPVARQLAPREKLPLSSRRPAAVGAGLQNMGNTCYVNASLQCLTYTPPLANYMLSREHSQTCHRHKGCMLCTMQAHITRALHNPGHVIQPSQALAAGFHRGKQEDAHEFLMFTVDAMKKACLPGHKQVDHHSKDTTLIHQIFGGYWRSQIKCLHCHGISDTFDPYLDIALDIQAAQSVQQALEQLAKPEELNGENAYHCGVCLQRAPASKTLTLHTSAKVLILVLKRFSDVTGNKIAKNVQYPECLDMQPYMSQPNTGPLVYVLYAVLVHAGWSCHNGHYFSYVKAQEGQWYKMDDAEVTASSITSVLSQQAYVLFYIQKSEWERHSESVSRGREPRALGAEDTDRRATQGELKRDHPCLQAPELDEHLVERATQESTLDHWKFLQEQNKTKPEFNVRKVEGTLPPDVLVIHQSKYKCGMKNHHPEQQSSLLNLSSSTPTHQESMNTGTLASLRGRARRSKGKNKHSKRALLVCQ
# measurementDescription: ubiquitin-specific protease 17 DUB inhibitors, concentration-effect assay, cell-free, verification of initial screening actives (AID 1645864)
# testContext: purified USP17, ubiquitin-rhodamine cleavage fluorescence, 3 h
Activity calls are given as the source filed them.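 Rule for the calls: active = maximal inhibition of USP17 at or above 30% in the confirmation dose-response, a value not among the printed readouts; inactive = the rest.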
Select the correct class. Options are yes = active, no = inactive and nothing else.

{"columns": ["compound", "classAssignment"],
 "data": [
  ["CCN(CC)C(=O)CN1CCCC(c2ncncc2-c2cc(C)no2)C1 (stereo unspecified)", "no"]
]}

Q: Would you mind telling me which call this test gave COc1cccc(C(=O)NCC(=O)Nc2nc3ccccc3[nH]2)c1 ?
A: yes

Q: Give the logged outcome of this assay for the following compound: Cc1sc(NC(=O)CNc2ccccc2)nc1-c1ccc2c(c1)CCN2C(=O)C(C)C
A: no

Q: Please state the recorded outcome for this compound: COc1ccc(CNC(=O)C(C)n2nc(-c3ccco3)c(-c3cc(C)no3)cc2=O)cc1 (stereo unspecified)
A: yes

Q: Just curious, what result did CCN(CC)c1nc(F)c2c(c1F)S(=O)(=O)CCN2Cc1cccnc1 get here?
A: no

Q: What outcome does the record of this test show for CCc1ccc(NC(=O)Cc2nnc(-c3ccc4ncccc4c3)o2)cc1 ?
A: yes

Q: Kindly provide the recorded test outcome for the following compound: CC(C)(C)C(=O)[C@@H]1[C@@H](C(=O)c2ccc3c(c2)OCO3)[C@@]2(C(=O)Nc3ccccc32)[C@H]2c3ccccc3C=CN12
A: yes

Q: Short answer needed: outcome of this test for COc1ccc(-c2cc3nc([C@H](C)NC(=O)Cc4ccccc4C)nn3cn2)cc1 ?
A: yes

----------
Give IC50 for every item shown.
# targetUnderTest: Ubiquitin carboxyl-terminal hydrolase 17-like protein 5 (Homo sapiens) (UniProt A8MUK1)
# measurementDescription: ubiquitin-specific protease 17 DUB inhibitors, concentration-effect assay, cell-free, verification of initial screening actives (AID 1645864)
# testContext: purified USP17, ubiquitin-rhodamine cleavage fluorescence, 3 h
Active and inactive are the calls of the source.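 The calls were made as follows: active = maximal inhibition of USP17 at or above 30% in the confirmation dose-response, a value not among the printed readouts; inactive = the rest.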

Solved cases below.
{"columns": ["compound", "targetUnderTest", "IC50"],
 "data": [
  ["COc1ccc(CCNC(=O)c2cn(-c3ccc(F)cc3)nn2)cc1OC", "Ubiquitin carboxyl-terminal hydrolase 17-like protein 5 (Homo sapiens) (UniProt A8MUK1)", "18.7 µM"],
  ["O=C(CNC(=O)OCc1ccccc1)Nc1ccc(Br)cc1C(=O)c1ccccc1Cl", "Ubiquitin carboxyl-terminal hydrolase 17-like protein 5 (Homo sapiens) (UniProt A8MUK1)", "9.66 µM"],
  ["Cc1cccc(NC(=O)Nc2nnc(CC(=O)NCc3ccccc3)s2)c1", "Ubiquitin carboxyl-terminal hydrolase 17-like protein 5 (Homo sapiens) (UniProt A8MUK1)", "10.7 µM"],
  ["Cc1ccc(Cl)cc1NC(=O)COC(=O)c1ccc2ccccc2n1", "Ubiquitin carboxyl-terminal hydrolase 17-like protein 5 (Homo sapiens) (UniProt A8MUK1)", "> 50 µM (inactive)"],
  ["COc1ccc(N2CCN(Cc3nnnn3Cc3ccc4c(c3)OCO4)CC2)cc1", "Ubiquitin carboxyl-terminal hydrolase 17-like protein 5 (Homo sapiens) (UniProt A8MUK1)", "> 50 µM (inactive)"],
  ["O=c1c2cnc(N3CCCCC3)nc2ccn1CCc1ccccc1", "Ubiquitin carboxyl-terminal hydrolase 17-like protein 5 (Homo sapiens) (UniProt A8MUK1)", "1.87 µM"]
]}

Required: IC50, one value per compound below.
1. O=C(COC(=O)c1cc(Cl)c2c(c1)OCO2)Nc1ccc2[nH]c(=O)[nH]c2c1
2. CCn1ccc2c(cc(C(=O)Nc3cccc(OC)c3)n2C)c1=O
3. CC1Oc2ccccc2C(=O)N(Cc2ccc([N+](=O)[O-])cc2)C1=O (stereo unspecified)
4. CCOc1ccc(CC(=O)Nc2ccc(-c3cn4cccnc4n3)cc2)cc1
5. O=C(COC(=O)c1ccc(CN2CCCC2=O)cc1)c1ccc2c(c1)OCCO2

A:
1: 4.92 µM; 2: > 50 µM (inactive); 3: > 50 µM (inactive); 4: 31.7 µM; 5: > 50 µM (inactive)

Below are some compounds; for each one, tell me its IC50.
1. O=C(CN1C(=O)COc2ccc(Cl)cc21)Nc1cccc2ncccc12
2. Cc1ccc(-c2ccc(N3CCOCC3)nn2)cc1S(=O)(=O)N1CCOCC1
3. COc1cc(COc2ccc3c(C)c(CC(=O)N4CC[C@@]5(O)CCCC[C@H]5C4)c(=O)oc3c2C)cc(OC)c1OC

A:
1. > 50 µM (inactive)
2. > 50 µM (inactive)
3. 38.9 µM

Hey, can you go through the list below and give me IC50 for every item?
1. Cc1c(OCC(=O)Nc2nc3ccccc3[nH]2)ccc2c3c(c(=O)oc12)CCC3
2. COCCCNC(=O)Cn1c(=O)n(Cc2ccc(C(=O)NCc3ccccc3OC)cc2)c(=O)c2ccccc21
3. O=S(=O)(c1ccc2c(c1)OCCO2)N(Cc1ccccc1)Cc1nnc(-c2ccccc2)o1
4. CCc1ccc(NC(=O)Cc2nnc3cc(-c4nc(C)no4)ccn23)cc1
5. COc1ccccc1NC(=O)c1cc(-c2ccccn2)nc2ccccc12

A:
1. 0.339 µM
2. > 50 µM (inactive)
3. > 50 µM (inactive)
4. 20.2 µM
5. 9.53 µM

For every listed record, write down its IC50.
1. Cn1nccc1C(=O)N1CCCCC1c1ncc(Cc2ccc(Cl)cc2)o1 (stereo unspecified)
2. O=C(COc1nc2ccccc2nc1N1CCOCC1)NC(c1ccccc1)c1ccccc1

A:
["> 50 µM (inactive)", "> 50 µM (inactive)"]
